The compounds listed here are annotated with their log10 Ki.
- Measured Target: NMDA receptor
- Assay Notes: MK-801 binding test ([3H]MK-801-binding assay, rat membrane specimen)
- Reported Conditions: NMDA receptor affinity, [3H]MK-801 4 nM in assay, Ki computed from IC50
Units before log transform: nM; reported quantity: Ki; transform: log10.

Reference set (4 entries):
CN1CCC(C2(O)c3ccccc3CCC2(C)C)CC1 (stereo not shown) = 3.61
CN1CCC(C2(O)c3c(ccc(F)c3Br)CC2(C)C)CC1 (stereo not shown) = 3.26
CN1CCC(C2(O)c3ccccc3CC2(C)C)CC1 (stereo not shown) [Example 1, monofumarate] = 3.15
COc1c(F)ccc2c1C1(CCC(CN3CCCC3)O1)C(C)(C)C2 (stereo not shown) = 3.92

Challenge: Lab note: need log10 Ki with NMDA receptor for entry Cc1ccc2c(c1)C(O)(C1CCN(C)CC1)C(C)(C)C2 (stereo not shown) , please look it up.
Response given: 2.94

Challenge: Another: CN1CCC(C23OCCOc4c(F)ccc(c42)CC3(C)C)CC1 (stereo not shown)
Response given: 2.85

Challenge: Another: CN1CCC(C2(O)c3ccc(Br)cc3CC2(C)C)CC1 (stereo not shown)
Response given: 2.93

Challenge: Another: COc1c(C#N)cc(F)c2c1C(O)(C1CCN(C)CC1)C(C)(C)C2 (stereo not shown)
Response given: 2.95

Challenge: Another: CCOc1c(F)ccc2c1C(O)(C1CCN(C)CC1)C(C)(C)C2 (stereo not shown)
Response given: 3.92

Challenge: Another: COc1ccc(F)c2c1C(O)(C1CCN(C)CC1)C(C)(C)C2 (stereo not shown)
Response given: 3.79

----------
- Measured Target: NMDA receptor
- Assay Notes: MK-801 binding test ([3H]MK-801-binding assay, rat membrane specimen)
- Reported Conditions: NMDA receptor affinity, [3H]MK-801 4 nM in assay, Ki computed from IC50
pKi: −log10 of the molar value. Counter-ions that a name gives are not always drawn.
Assign 1 to entries whose pKi meets or exceeds 6; assign 0 to the rest.

Study these solved cases before continuing.
CN1CCC(C2(O)c3c(Br)ccc(F)c3CC2(C)C)CC1 (stereo not drawn) = 0
COc1c(F)c(F)cc2c1C(O)(C1CCN(C)CC1)C(C)(C)C2 (stereo not drawn) = 0
COc1cc(F)c2c(c1OC)C(O)(C1CCN(C)CC1)C(C)(C)C2 (stereo not drawn) = 0

Challenge: Determine whether measured pKi meets or exceeds 6 for CN1CCC(C2(O)c3c(c(F)cc4c3OCC4)CC2(C)C)CC1 (stereo not drawn)
Response given: 0

Challenge: Another: CN1CCC(C2(O)c3cc(Br)cc(F)c3CC2(C)C)CC1 (stereo not drawn)
Response given: 1

Challenge: Another: Cc1ccc2c(c1)C(O)(CC(C)(C)N)C(C)(C)C2 (stereo not drawn) [Example 131, fumarate]
Response given: 0

----------
- Measured Target: NMDA receptor
- Assay Notes: MK-801 binding test ([3H]MK-801-binding assay, rat membrane specimen)
- Reported Conditions: NMDA receptor affinity, [3H]MK-801 4 nM in assay, Ki computed from IC50
Measurement Kind: pKi
Expect pKi as a plain number equal to -log10 of the molar concentration.

Reference set (2 entries):
CN1CCC(C2(O)c3cc(F)ccc3CC2(C)C)CC1 (stereo not drawn) = 6.03
COc1c(F)ccc2c1C(O)(C1CCN(C)CC1)C(C)(C)C2 (stereo not drawn) = 6.03

Okay, now this compound:
Challenge: Quick one: pKi for CN1CCC(C2(O)c3cc(Cl)c(F)cc3CC2(C)C)CC1 (stereo not drawn) ?
Response given: 6.00

The measured values listed here are drawn from patent US20070197594A1.
